src = patent US20250236616A1

tested on: IL-1β; test: Whole bovine blood assay, LPS-induced IL-1β (inhibition / overstimulation); assay type: cell-based; conditions: drug concentration giving overstimulation (OS) of LPS-induced IL-1β, top concentration 250 μM
property: minimal effective concentration

I would be grateful if you could share the reported minimal effective concentration for `CCCNC[C@]1(O)[C@H](C)O[C@@H](O[C@H]2[C@H](C)[C@@H](O[C@@H]3O[C@H](C)C[C@H](N(C)S(=O)(=O)c4ccccc4)[C@H]3Oc3ccc(Cl)cn3)[C@](C)(O)C[C@@H](C)CN[C@H](C)[C@@H](O)[C@](C)(O)[C@@H](CC)OC(=O)[C@@H]2C)C[C@@]1(C)OC` .
6 µM

I would be grateful if you could share the reported minimal effective concentration for `CC[C@H]1OC(=O)[C@H](C)[C@@H](O[C@H]2C[C@@](C)(OC)[C@](O)(Cn3ccnc3)[C@H](C)O2)[C@H](C)[C@@H](O[C@@H]2O[C@H](C)C[C@H](N(C)S(=O)(=O)c3ccc(Cl)cc3)[C@H]2O)[C@](C)(O)C[C@@H](C)CN[C@H](C)[C@@H](O)[C@]1(C)O` .
16 µM

I would be grateful if you could share the reported minimal effective concentration for `CCCNC[C@]1(O)[C@H](C)O[C@@H](O[C@H]2[C@H](C)[C@@H](O[C@@H]3O[C@H](C)C[C@H](N(C)S(=O)(=O)c4ccc(Br)cc4)[C@H]3Oc3ccc(OC)cc3)[C@](C)(O)C[C@@H](C)CN[C@H](C)[C@@H](O)[C@](C)(O)[C@@H](CC)OC(=O)[C@@H]2C)C[C@@]1(C)OC` .
3 µM

I would be grateful if you could share the reported minimal effective concentration for `CC[C@H]1OC(=O)[C@H](C)[C@@H](O[C@H]2C[C@@](C)(OC)[C@](O)(CNC)[C@H](C)O2)[C@H](C)[C@@H](O[C@@H]2O[C@H](C)C[C@H](N(C)S(=O)(=O)Nc3ccc(C(F)(F)F)cc3)[C@H]2O)[C@](C)(O)C[C@@H](C)CN[C@H](C)[C@@H](O)[C@]1(C)O` .
>250 µM

I would be grateful if you could share the reported minimal effective concentration for `CC[C@H]1OC(=O)[C@H](C)[C@@H](O[C@H]2C[C@@](C)(OC)[C@](O)(Cn3cnnn3)[C@H](C)O2)[C@H](C)[C@@H](O[C@@H]2O[C@H](C)C[C@H](N(C)S(=O)(=O)c3ccc(Cl)cc3)[C@H]2O)[C@](C)(O)C[C@@H](C)CN[C@H](C)[C@@H](O)[C@]1(C)O` .
8 µM

I would be grateful if you could share the reported minimal effective concentration for CCCNC[C@]1(O)[C@H](C)O[C@@H](O[C@H]2[C@H](C)[C@@H](O[C@@H]3O[C@H](C)C[C@H](N(C)S(=O)(=O)c4ccccc4)[C@H]3Oc3cccc([S+](C)[O-])c3)[C@](C)(O)C[C@@H](C)CN[C@H](C)[C@@H](O)[C@](C)(O)[C@@H](CC)OC(=O)[C@@H]2C)C[C@@]1(C)OC (stereo partly shown) .
40 µM

I would be grateful if you could share the reported minimal effective concentration for `CCCNC[C@]1(O)[C@H](C)O[C@@H](O[C@H]2[C@H](C)[C@@H](O[C@@H]3O[C@H](C)C[C@H](N(C)S(=O)(=O)N4Cc5ccccc5C4)[C@H]3O)[C@](C)(O)C[C@@H](C)CN[C@H](C)[C@@H](O)[C@](C)(O)[C@@H](CC)OC(=O)[C@@H]2C)C[C@@]1(C)OC` .
3 µM
